- Tested on: HOP-62 NSCLC
- Experimental Details: NCI tumour cell line growth inhibition, 48 h
Readout: TGI (µM)

* O=C(Nc1ccc(Cl)cc1F)c1cc(Br)ccc1O | 7.96
* COc1cccc(OC)c1/C=C1\OC(=O)c2cccc(OC)c21 | 56

---

- System: SF-295 CNS
- Experimental Details: NCI tumour cell line growth inhibition, 48 h
Readout: log10(TGI) (log10 of the value in µM)

* Fc1ccc(Nc2cc(-n3nnc4ccccc43)nc3ccccc23)cc1 | 1.62
* OCCCCC#Cc1ccccc1C#Cc1cccc(O)c1 | 1.62
* Cc1ccc(Nc2nc(N)c(C(=O)c3ccc(C#N)cc3)s2)cc1 | 1.58
* CCN(CC)CC(C)(C)C(=O)/C=C/c1ccc(Cl)c(Cl)c1 | 0.51
* COc1ccc(/C=c2/sc3n(c2=O)C(c2ccc(OC)c(OC)c2)C2=C(N=3)c3cc(F)ccc3OC2)cc1 (stereo unspecified) | 1.73

---

- Tested on: DLD-1 colon
- Experimental Details: NCI tumour cell line growth inhibition, 48 h
Listed here: items and their measured TGI.
Readout: TGI

• CCOC(=O)[C@H](CCCNC(=O)OC(C)(C)C)NCc1ccc(OC)c(OC)c1 = > 100 µM
• CC(C)(C)N1CC2(CCCCC2)C1=O = > 100 µM
• COC(=O)C12C3C4C5(C(=O)OC)C(C1C35C(=O)N(C(C)C)C(C)C)C42C(=O)N(C(C)C)C(C)C (stereo not given) = > 38.4 µM
• CC(=O)OCC1OC(Nc2ncc(-c3ccc(C)cc3)s2)C(OC(C)=O)C(OC(C)=O)C1OC(C)=O (stereo not given) = > 100 µM
• Cc1cccc(NC(=O)/C=C/c2ccc(N(CCC#N)CCC#N)cc2C)c1 = > 100 µM
• CCOC(=O)C1N(S(=O)(=O)c2ccc(C)cc2)CCC12C(c1ccc(OC)cc1)NC1CCCCC12 (stereo not given) = > 100 µM
• N#CC(C(=O)/C(=N/Nc1nc(=S)[nH]n1N)C(C#N)c1ccccc1)c1ccccc1 (stereo not given) = > 100 µM
• C/C(=C1/CCCC2(N=NCC2c2ccccc2)C1=O)c1ccccc1 (stereo not given) = > 100 µM
• CCCCCC(C[N+]1(C)CCOCC1)C(=O)/C=C/c1ccccc1 (stereo not given) = 18 µM
• N#CC(C#N)=c1[nH]c2cccc3c2-c2c(cccc2c3=C(C#N)C#N)[nH]1 = > 100 µM

---

- System: NCI-H522 lung
- Experimental Details: NCI tumour cell line growth inhibition, 48 h; in the data active = GI50 below about 0.43 µM; inactive = the rest
Labels: active, inactive

* O=C(Nc1ccc(Cl)cc1F)c1cc(Br)ccc1O | inactive
* NC(=O)C(=CNc1nc(-c2ccc(Cl)c(Cl)c2)cs1)C(N)=O | inactive
* COc1ccc(-n2cc(-c3ccc(Cl)c(Cl)c3)nc2SCc2cccc(C#N)c2)cc1 | inactive
* CC(=O)Oc1ccccc1C(=O)N=C1[Se]CCCN1C(=O)c1ccccc1OC(C)=O | inactive
* Nc1nc(Br)nc2c1ncn2C1CC(O)C(CO)O1 (configuration not stated) | inactive
* Cc1[nH][nH]c(=O)c1C=Nc1ccc(-c2nc3ccccc3[nH]2)cc1 | inactive
* O=C(N/N=C\c1cc(Br)ccc1O)c1ccncc1 | inactive
* Cc1[nH]n(-c2cccc(Cl)c2)c(=O)c1/C=C1\C=Nc2ccc(Br)cc21 | inactive
* COc1ccc(/C=c2/sc3n(c2=O)C(c2ccc(OC)c(OC)c2)C2=C(N=3)c3cc(F)ccc3OC2)cc1 (configuration not stated) | inactive
* COC(=O)[C@@H](NC(=O)[C@@H](OC)[C@@H]1Cc2cc3cc(OC4CC(OC5CC(O)C(O)C(C)O5)C(O)C(C)O4)c(C)c(O)c3c(O)c2C(=O)[C@H]1OC1CC(OC2CC(OC3CC(C)(O)C(O)C(C)O3)C(O)C(C)O2)C(O)C(C)O1)C(C)C (some centres not stated) | active
* CCN(CC)CCOc1ccc(/C(=C(\C)c2ccc(F)c(OC)c2)c2ccc(Cl)cc2)cc1 | inactive
* OCCCCC#Cc1ccccc1C#Cc1cccc(O)c1 | inactive
* CN1CCc2c(Sc3ccc(C(=O)NO)cc3)c3ccccc3n2C1 | inactive
* CCN(CC)CCNCC(=O)Oc1ccc(/C=C/C(=O)CC(=O)/C=C/c2ccc(OC(=O)CNCCN(CC)CC)c(OC)c2)cc1OC | inactive
* Nc1c(C(=O)N/N=C/c2ccc(-c3ccc(Cl)cc3)o2)cnn1-c1ccnc2c(C(F)(F)F)cccc12 | inactive
* Nc1ccncc1/C=C1/C(=O)Nc2ccccc21 | inactive
* O=C(CCCN1CC=C(n2c(=O)[nH]c3ccccc32)CC1)c1ccc(F)cc1 | inactive

---

- Test system: MDA-MB-435
- Experimental Details: NCI tumour cell line growth inhibition, 48 h
Readout: TGI

• CCN(CC)/C(Cl)=C(Cl)\C(=C1\Nc2ccc(OC)cc21)[N+](=O)[O-] = > 100 µM
• COc1ccc2c(c1)CN1C(=N2)CSC1c1cc([N+](=O)[O-])ccc1Cl (stereo unspecified) = > 100 µM
• O/N=C\c1c(O)ccc2ccccc12 = > 100 µM
• COc1ccc2c(c1C)C(=O)C(O)(CC=C(C)C)O2 (stereo unspecified) = > 100 µM
• COc1cc(NC(C)CCCN)c2nccc(C)c2c1OC (stereo unspecified) = 32.7 µM
• NC(N)=N/N=C/c1cc(Cl)cc(Cl)c1O = > 100 µM
• C#C[C@]1(O)CC[C@H]2[C@@H]3CC=C4c5sc(Nc6ccccc6)nc5CC[C@]4(C)[C@H]3CC[C@@]21C = 11.2 µM
• O=C(CC(c1ccccc1)N1CCCCC1)c1ccccc1 (stereo unspecified) = 27.4 µM
• Nc1nc(Br)nc2c1ncn2C1CC(O)C(CO)O1 (stereo unspecified) = > 100 µM
• CCOC(=O)CC1c2ccc(O)cc2OC(=O)C1c1ccc([N+](=O)[O-])cc1 (stereo unspecified) = 56.1 µM
• COc1cc(/C=C2\C[C@H]3[C@@H]4CC=C5C[C@@H](O)CC[C@]5(C)[C@H]4CC[C@]3(C)C2=O)cc(OC)c1OC = > 100 µM

---

- Test system: EKVX NSCLC
- Experimental Details: NCI tumour cell line growth inhibition, 48 h
Readout: TGI (µM)

- O=C(CN(C1CCCCC1)C1CCCCC1)Nc1ccc(S(=O)(=O)c2ccc(NC(=O)CN(C3CCCCC3)C3CCCCC3)cc2)cc1: 2.88
- CC(=O)c1sc2c(c1OC(=O)c1cccs1)c(=O)n(-c1ccccc1)c(=S)n2-c1ccccc1: 51.1

---

Listed here: items and their measured TGI.
- Test system: UACC-257 melanoma
- Experimental Details: NCI tumour cell line growth inhibition, 48 h
Readout: TGI

• CC(=O)Oc1ccccc1-c1cc2ccccc2oc1=O = > 100 µM
• COC(=O)[C@@H](NC(=O)[C@@H](OC)[C@@H]1Cc2cc3cc(OC4CC(OC5CC(O)C(O)C(C)O5)C(O)C(C)O4)c(C)c(O)c3c(O)c2C(=O)[C@H]1OC1CC(OC2CC(OC3CC(C)(O)C(O)C(C)O3)C(O)C(C)O2)C(O)C(C)O1)C(C)C (some centres undefined) = 8.91 µM
• Cc1ccc2nc(-c3ccc(N)c(I)c3)sc2c1 = > 100 µM
• O=C(CCC(=O)Nc1cccc(Cl)c1)CC(=O)c1ccc(Cl)cc1 = > 100 µM
• Cc1cccc2c1[C@]13OC(C)[C@]4(C)CC5OC(=O)[C@@]1(C)[C@@H]5[C@]34C(=O)O2 (some centres undefined) = > 100 µM
• CC1(C)c2ccccc2C(=O)C12CCC(=O)CC2 = > 100 µM
• COC(=O)C12C3C4C5(C(=O)OC)C(C1C35C(=O)N(C(C)C)C(C)C)C42C(=O)N(C(C)C)C(C)C (centres undefined) = > 50 µM
• C#C[C@]1(O)CC[C@H]2[C@@H]3CC=C4c5sc(Nc6ccccc6)nc5CC[C@]4(C)[C@H]3CC[C@@]21C = 8.6 µM
• CCOC(=O)C(N=Nc1ccc(S(N)(=O)=O)cc1)C(C)=O (centres undefined) = > 100 µM
• CCOC(=O)C1=C(Nc2cccc(OC)c2)OCC1=O = > 100 µM
• c1ccc2c3ccn4cc5c(cc4c-3nc2c1)CCCC5 = 38.2 µM
• O=C(C(=O)N1CCc2ccccc21)c1c[nH]c2ccccc12 = > 10 µM
• C=CCn1c(=O)n(CC=C)c(=O)n(CC=C)c1=O = > 100 µM
• C[C@]12CCC(=O)C=C1CC[C@@H]1C2CC[C@]2(C)c3nn(-c4ccc(F)cc4)nc3CC12 (some centres undefined) = > 100 µM
• COc1cc(/C=C2\C(=O)Nc3ccc(F)cc32)cc(OC)c1OC = > 100 µM
• O=c1[nH]c2cc(Cl)ccc2n1C1CCN(CCCC(c2ccc(F)cc2)c2ccc(F)cc2)CC1 = 3.04 µM
• COc1cccc(CCn2c(N)c(-c3ccccc3)c3ccc([N+](=O)[O-])cc3c2=O)c1 = 40.8 µM
• CC(=O)c1csc2c1C(=O)c1scc(C(C)=O)c1C2=O = 2.41 µM
• N#C/C(=C\c1ccc(O)c(O)c1)C(N)=O = > 100 µM
• O=C1NC(=O)C(c2c[nH]c3cc(Br)ccc23)=C1c1cn(C(c2ccccc2)(c2ccccc2)c2ccccc2)cn1 = 51.2 µM
• CC1=C(C(N)=O)C(c2ccncc2)C(C#N)=C2SCC(=O)N12 (centres undefined) = > 100 µM
• O=c1cc(-c2ccccc2)[nH]c2cc3c(cc12)OCO3 = > 100 µM
• CC1(C)OCC2OC3(c4nc(C#N)c(N)o4)OC(C)(C)OC3C2O1 (centres undefined) = > 100 µM
• CO[C@H]1[C@@H](O)[C@@H](C)O[C@@H](O[C@H]2CC[C@@]3(C)[C@H](CC[C@@H]4[C@@H]3CC[C@]3(C)[C@@H](C5=CC(=O)OC5)[C@@H](OC(C)=O)C[C@]43O)C2)[C@@H]1O = 0.239 µM
• COC(=O)C(=C/c1ccc(OC)cc1)/C(C(=O)O)=C(/C)c1ccccc1 = > 100 µM
• CC(=O)c1sc2c(c1OC(=O)c1cccs1)c(=O)n(-c1ccccc1)c(=S)n2-c1ccccc1 = 43.9 µM
• CC1=CC(C2/C(=N/O)C=C(C)CC2(C)C)C(O)C(C)(C)C1 (centres undefined) = 30.1 µM
• Cc1cccc(NC(=O)/C=C/c2ccc(N(CCC#N)CCC#N)cc2C)c1 = > 100 µM
• O=C(O)c1ccc(NNc2cc(=O)[nH]c(=O)[nH]2)cc1 = > 100 µM
• CN(Nc1cc(=O)[nH]c(=O)[nH]1)c1ccccc1 = > 100 µM
• CC(=O)Oc1ccc(Nc2c3ccccc3nc3ccccc23)cc1 = 4.31 µM
• Cc1cc(C)n(CCNCCn2nc(C)cc2C)n1 = > 100 µM
• CC1=NC(=Cc2ccc(O)cc2)C(=O)N1n1c(-c2ccccc2)nc2ccccc2c1=O = > 100 µM
• O=C1CSC(Cc2nc3ccccc3[nH]2)=N1 = > 90.7 µM
• CC(C)=CCS(=O)c1ccccc1NC1=CC(=O)CC(C)(C)C1 (centres undefined) = > 100 µM
• COc1cc2c(cc1OCc1ccccc1)CNCC2 = > 100 µM
• CCOC(=O)c1nc2c(Cl)c3ncccc3cc2[nH]c1=O = > 100 µM
• COc1ccnc2c1C(=O)c1nc3ccccc3c3ccnc-2c13 = 0.536 µM
• O=C(c1ccccc1)c1c(-c2ccccc2)[nH]n(-c2ccc([N+](=O)[O-])cc2)c(=O)c1=O = > 100 µM
